Target: T1, Human Id1: Histidine (human, UniProt P41134 1-155, limits assumed)
T1 construct: Fusion protein made in E. coli from vector pGW07; also called h-Id1: his; not shown: His tag
T1 sequence (looked up): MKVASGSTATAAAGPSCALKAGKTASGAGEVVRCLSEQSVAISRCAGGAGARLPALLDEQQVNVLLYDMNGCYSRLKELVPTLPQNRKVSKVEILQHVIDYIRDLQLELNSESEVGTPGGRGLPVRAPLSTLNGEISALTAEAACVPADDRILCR
Experiment: ELISA, Ab 0.025 µg/ml
Protocol: The rabbit monoclonal anti-human Id3 (clone #3-3) and the rabbit monoclonal anti-mouse/human Id3 (clones #6-1, 16-1, 17-3, and 42-1) produced in Example 6 were tested reactivity against the following antigens: mouse Id1:His, human Id1:His, mouse Id2:His, human Id2:His, mouse Id3:His, human Id3:His, mouse Id4:His, human Id4:His and GST. 1. […]
quantity_kind: A450 (A450)
Answers are plain numbers, in A450.

What A450 value was documented for this binder, rabbit monoclonal anti-mouse/human Id3, clone #BCH-4/#42-1 (antibody, V domains shown, Rabbit IgG from a rabbit hybridoma; also called m/h Id3 MoAb 42-1) VH: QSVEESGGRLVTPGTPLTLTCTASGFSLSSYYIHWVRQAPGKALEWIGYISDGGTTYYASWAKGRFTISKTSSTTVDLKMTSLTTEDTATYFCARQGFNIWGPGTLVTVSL VL: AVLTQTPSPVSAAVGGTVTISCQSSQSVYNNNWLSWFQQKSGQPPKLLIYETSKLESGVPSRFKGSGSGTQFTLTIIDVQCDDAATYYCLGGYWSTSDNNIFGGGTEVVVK ? 0.043

All figures here come from patent US20070178531A1.
